These data points were gathered from patent US20090181898A1.

run description: Clinical pharmacokinetics, 25 and 75 mg, compared to Adderall XR and Dexedrine Spansule
details: human, in vivo, po, 25 mg, L-lysine-d-amphetamine intact conjugate AUClast, oral 25 mg L-lysine-d-amphetamine, mean
experimental readout: AUC(0-t) (ng·h/mL)
A number alone suffices; assume ng·h/mL.

Let me know recorded AUC(0-t) for CC(Cc1ccccc1)NC(=O)C(N)CCCCN (stereo not shown) , thanks.
11.3

###

run description: Oral bioavailability at escalating doses (LC/MS/MS)
details: rat, in vivo, po, 3 mg/kg
experimental readout: AUC(0-inf) (ng·h/mL)
A number alone suffices; assume ng·h/mL.

Let me know recorded AUC(0-inf) for CC(Cc1ccccc1)NC(=O)C(N)CCCCN (stereo not shown) , thanks.
331
